System: HT29 colon
Assay: NCI tumour cell line growth inhibition, 48 h
OUTCOME_MEASURE: TGI

COMPOUND | OBS_VALUE
CC(C)C(O)(C(=O)OCN1C(=O)C2C3C=CC(C2C1=O)C1C2C(=O)N(COC(=O)C(O)(C(C)C)C(C)O)C(=O)C2C31)C(C)O (stereo not given) | > 100 µM
Cc1cc2c(cc1C)[n+]([O-])c(NCCCN(C)C)c(C#N)[n+]2[O-] | > 100 µM
CCc1ccccc1N1C(=O)C(=O)C(c2nc3ccccc3s2)C(=O)C1=O | > 100 µM
Cc1ccc(-c2c(C#N)c(-c3ccccc3)c(C#N)c(=O)n2NS(=O)(=O)c2ccc(C)cc2)cc1 | > 100 µM
C[C@]12CC[C@@H]3c4ccc(O)cc4CC[C@H]3[C@@H]1CC[C@@H]2NS(=O)(=O)c1cccc(OC(F)(F)F)c1 | 3.94 µM

Enter reported TGI observed with HT29 colon for COC1(C)OC[C@@]2(C)OC(C)C1(C)C2O[Si](C(C)C)(C(C)C)C(C)C (stereo not given in full)
> 100 µM

Observed TGI on HT29 colon for "NC1CCCCC1N.O=NN1CCCCCC1(P(=O)([O-])[O-])P(=O)([O-])[O-].[Na+].[Pt+2]" , please.
> 100 µM

----------
Listed here are compounds together with their documented TGI.
Tested on: COLO 205 colon
Assay: NCI tumour cell line growth inhibition, 48 h

Solved cases (5 shown):
COMPOUND | OBS_VALUE
O=C(CSCC(=O)N/N=C\c1cc(Cl)cc(Cl)c1O)N/N=C\c1cc(Cl)cc(Cl)c1O | 20.4 µM
CCCCCc1cccc(=O)o1 | > 100 µM
O=C1C[C@@H](c2ccc(O)cc2)[C@@]2(O1)C(=O)O[C@H]([C@@H](O)CO)[C@@H]2O | > 100 µM
COC(=O)c1cc(CC2Cc3cc4c(cc3C2)CCC4)cc2c1CCC2 | > 100 µM
O=C(O)CN1CCN(CC(=O)O)CCN(CC(=O)O)CC1 | 9.69 µM

Need TGI, item "CCc1cccc(CC)c1NC(=O)C(=O)Cc1nc2ccccc2o1"
> 100 µM

Using the record for "COC(=O)Cc1c([C@H]2[C@H](CC(=O)OC)c3ccccc3N2C(=O)C(F)(F)F)[nH]c2ccccc12" , report its TGI.
36.1 µM

Name the reported TGI value associated with the compound "ClCc1nn(-c2ccccc2)c(CCl)c1CCl"
8.95 µM

// TGI lookup, key: "CC1=NN(C2=NS(=O)(=O)c3ccccc3N2C)C(=O)C1"
> 100 µM

Item N#CC(C#N)=c1ccc(=C2N3CCCC3CN2C23CC4CC(CC(C4)C2)C3)cc1 (stereo unspecified) has what recorded TGI?
> 100 µM

May I ask what TGI has been recorded for "Cn1cc(C2=C(c3cn(C)c4ccc(OCc5ccccc5)cc34)C(=O)NC2=O)c2ccccc21" ?
> 25 µM

Give the measured TGI of "NS(=O)(=O)c1ccc(N=Nc2ncccc2O)cc1" .
> 100 µM

Tell me the measured TGI of "CCOC(=O)NN(C(=O)OCC)C(=C(c1ccccc1)N1CCOCC1)N(NC(=O)OCC)C(=O)OCC" , please.
> 100 µM

----------
Entries with reported GI50 on BT-549 breast

STRUCTURE_SMILES_STRING | GI50
C[C@]12CC[C@@H]3c4ccc(O)cc4CC[C@H]3[C@@H]1CC[C@@H]2NS(=O)(=O)c1cccc(OC(F)(F)F)c1 | 1.97 µM
Cc1ccc2c(c1)c(C1=C(c3cn(C)c4ccccc34)C(=O)NC1=O)cn2C | 3.65 µM
C=C(CN1CCc2ccccc2C1)c1ccc(CCC(=O)Nc2ccccc2N)cc1 | 16.4 µM
C/C(Cc1ccc(Cl)cc1)=C(\c1ccc(OCCN2CCCCCC2)cc1)c1ccc(OC(=O)c2ccccc2)cc1 | 6.27 µM

Lab note: need GI50 with BT-549 breast for entry "CCOC(=O)Nc1nc2cc(OC)c(OC)c(OC)c2s1" , please look it up.
> 100 µM
